From various publications: IC50 for Cyclin-dependent kinase 12 (Homo sapiens, UniProt Q9NYV4).
Readout Label: IC50 (nM)

1. NC(=O)c1cccc2[nH]c(NC(=O)c3cccc(C(=O)N4CCC(Nc5ncc(Br)cn5)CC4)c3)nc12    344
2. NC(=O)c1cccc2[nH]c(NC(=O)c3cccc(C(=O)N4CCC(Nc5ncc(I)cn5)CC4)c3)nc12    285
3. CN(C)C/C=C/C(=O)Nc1ccc(C(=O)N[C@@]2(C)CCC[C@@H](Nc3ncc(Cl)c(-c4c[nH]c5ccccc45)n3)C2)nc1    204
4. CCCc1cc(N[C@@H]2CC[C@@H](N)C2)n2nccc2n1    6200
5. C=CC(=O)N1CCC(c2ccc(C(C)C(=O)Nc3cc(C4CC4)[nH]n3)cn2)C1 (stereo not given)    55
